Listed next: entries and their corresponding growth.
Tested on: MCF7 breast
testSummary: NCI-60 one-dose screen, 48 h (100 = growth as untreated, 0 = no growth, -100 = all killed)
conditionDescription: 10 µM unless noted
Compounds without any hit were thinned out: in the full panel of roughly 83,000, 20% have a hit.

# compound, growth [%]
data = [
    ("Nc1ncc(-c2ccc3ncnc(NCc4ccccc4)c3c2)cn1", 19.3),
    ("O=C(CCCCCCN1CC(=O)N2[C@@H](c3ccc(Cl)s3)c3[nH]c4ccccc4c3C[C@H]2C1=O)NO", 14.7),
    ("CC(O)c1cccc(/C(N)=N/C(N)=N/c2nc3ccccc3s2)c1 (stereo not given)", 90.5),
    ("COc1ccc(-c2c3c(cn2Cc2cccc(OC)c2)-c2oncc2CCC3)cc1", 96.9),
    ("O=C(NNc1nc2cc(F)cc(F)c2n2cccc12)c1cccnn1", 10.4),
    ("Cc1ccc2c(n1)C(=O)C(Cl)=C(Nc1cc(C(F)(F)F)cc(C(F)(F)F)c1)C2=O", -24.9),
    ("C#CCOc1ccc(-c2csc(NC(=O)C=C)n2)cc1NS(=O)(=O)c1cccc2c(N(C)C)cccc12", 4.46),
    ("Clc1ccc2c(N/N=C/c3c[nH]c4ccccc34)ccnc2c1", -72),
    ("CSc1ccc(/C(=N/N=C(N)N)c2ccc(F)cc2)cc1", 5.11),
    ("Cc1cc2nc3c4cc(C#N)ccc4n(CCN(C)C)c3nc2cc1C", 2.34),
    ("C#C[C@]1(O)CC[C@H]2[C@@H]3CC=C4c5sc(N6CCN(C)CC6)nc5CC[C@]4(C)[C@H]3CC[C@@]21C", 24.2),
    ("Oc1[nH]c2ccc(Cl)cc2c1N=Nc1nc(N=Nc2c(O)[nH]c3ccc(Cl)cc23)nc(N2CCOCC2)n1", 43.1),
    ("COc1ccc2[nH]cc(-c3nn4cc(-c5ccncc5)nc4s3)c2c1", 11.2),
    ("O=C(COc1ccc(/C=C2\\C(=O)Nc3ccc(F)cc32)cc1)Nc1ccccc1", 89.8),
    ("O=S(=O)(Oc1ccc(-c2cn3ccsc3n2)cc1)c1cccc(C(F)(F)F)c1", 90.1),
    ("O=C1C(N2CCN(c3ccccc3)CC2)=C(Cl)C(=O)c2ncccc21", -44.7),
    ("Cc1ccc(NC2=C(Cl)C(=O)c3nc(C)ccc3C2=O)c(C)c1", -64.4),
    ("CC1(C)CC[C@]23CC[C@]4(C)[C@H](CC[C@@H]5[C@@]6(C)CC[C@H](N)C(C)(C)[C@@H]6CC[C@]54C)[C@H]2[C@H]1OC3", -8.5),
    ("COc1cc(/C=C2/C(=O)Nc3ccc(Cl)cc32)ccc1OCc1ccc(Cl)cc1", 49),
    ("COc1cccc2c1C=CC1(O2)Oc2cccc(OC)c2C=C1C (stereo not given)", 13.1),
]

###

Test system: NCI-H226 lung
testSummary: NCI-60 one-dose screen, 48 h
conditionDescription: 10 µM unless noted
Compounds without any hit were thinned out: in the full panel of roughly 83,000, 20% have a hit. Calls of active or inactive are those of the source. Rule for the calls: active = growth percent below 10; inactive = the rest.
Possible outcomes: active, inactive

# molecule, target, category
rows = [
    ("CCCCCc1ccc(S(=O)(=O)Nc2cc(-c3csc(N)n3)ccc2OC)cc1", "NCI-H226 lung", "inactive"),
    ("CN1CCN(Cc2ccc(NC(=O)c3cncc(C#Cc4cnc5ccc(OCC(F)F)nn45)c3)cc2C(F)(F)F)CC1", "NCI-H226 lung", "active"),
    ("O=C(Nc1ccccc1)Nc1nc2ccc([N+](=O)[O-])cc2[nH]1", "NCI-H226 lung", "inactive"),
    ("CC(=C(c1ccc(OCCN(C)C)cc1)c1ccc(OCCN(C)C)cc1)c1ccc(Cl)cc1", "NCI-H226 lung", "active"),
    ("CC(=O)Nc1nc(C)c(-c2csc(Nc3ccccc3)n2)s1", "NCI-H226 lung", "inactive"),
    ("O=C1/C(=C/C=C/c2ccco2)SC(=S)N1Cc1ccccc1", "NCI-H226 lung", "inactive"),
    ("Cc1ccc2c(n1)C(=O)C(Cl)=C(Nc1ccc(C(F)(F)F)cc1)C2=O", "NCI-H226 lung", "inactive"),
    ("CCCCN1C(=O)/C(=c2\\sc3n(c2=O)C2C(NN=3)N(CC)C(=O)N2CC)c2cccc(C)c21 (centres undefined)", "NCI-H226 lung", "inactive"),
    ("COc1ccccc1Cn1cc(C#N)c(N)c1C(=O)c1ccc(Br)cc1", "NCI-H226 lung", "inactive"),
    ("C#Cc1nc(/C=C\\CCCCCCC(=O)NO)cs1", "NCI-H226 lung", "inactive"),
    ("CC(=C(c1ccc(OCCN2CCCC2)cc1)c1ccc(OCCN2CCCC2)cc1)c1ccc(Cl)cc1", "NCI-H226 lung", "inactive"),
    ("COC(=O)[C@@H](Cc1c[nH]c2ccccc12)NC(=O)CCCCOc1cc(O)c2c(=O)cc(-c3ccccc3)oc2c1", "NCI-H226 lung", "inactive"),
    ("Fc1ccc(-c2cn3c(-c4c[nH]c5ccc(Br)cc45)csc3n2)cc1", "NCI-H226 lung", "inactive"),
    ("CN1CCN(c2ccc(Nc3nc(NCCNS(=O)(=O)c4ccc5ccccc5c4)c4sccc4n3)cc2)CC1", "NCI-H226 lung", "inactive"),
    ("O=C(CCCCCC/C=C\\c1csc(Br)n1)NO", "NCI-H226 lung", "inactive"),
    ("Cn1cc(-c2cc3ncnc(Nc4ccc(CC(=O)Nc5nc(C(C)(C)C)cs5)cc4)c3s2)cn1", "NCI-H226 lung", "inactive"),
    ("CNC(=O)c1cc(N2CCc3cc(NC(=O)Nc4ccc(N5CCN(C)CC5)c(C(F)(F)F)c4)ccc32)ccn1", "NCI-H226 lung", "inactive"),
    ("O=C(CSc1nc2ccccc2c(=O)n1-c1ccccc1)Nc1ccc(S(=O)(=O)Nc2nccs2)cc1", "NCI-H226 lung", "inactive"),
    ("C[C@]12CC[C@H]3[C@@H](CC=C4C[C@@H](O)CC[C@@]43C)[C@@H]1CC[C@@H]2[C@](C)(O)CCc1cccnc1", "NCI-H226 lung", "inactive"),
]
